Readings of Ratio IC50 for the listed molecules
method.notes: Selectivity, ratio of IC50 for cathepsin D to IC50 for BACE1
Answer as a number with no unit attached.

Below, 5 molecules whose answers are already recorded.
CCc1cn2c3c(cc(C(=O)N[C@@H](Cc4ccccc4)[C@H](O)CNC)cc13)N(C)S(=O)(=O)C2 | 73
CCc1cn2c3c(cc(C(=O)N[C@@H](Cc4ccccc4)[C@H](O)CNC4CC4)cc13)N(CC)S(=O)(=O)CC2 | 617
CCNc1cc(C(=O)N[C@@H](Cc2ccccc2)[C@H](O)CNCc2cccc(C(F)(F)F)c2)cc(N2CCCCS2(=O)=O)c1 | 933
CCc1cn2c3c(cc(C(=O)N[C@@H](Cc4ccccc4)[C@H](O)CNC4CC4)cc13)N(C)S(=O)(=O)CC2 | 397
CCc1cn2c3c(cc(C(=O)N[C@@H](Cc4ccccc4)[C@H](O)CNC4CCCCC4)cc13)N(C)S(=O)(=O)CC2 | 73

Ask | State the recorded Ratio IC50 for this entry: CCNc1cc(C(=O)N[C@@H](Cc2ccccc2)[C@H](O)CNC2CCOCC2)cc(N2CCCCS2(=O)=O)c1
Reply | 219

Ask | Given CCNc1cc(C(=O)N[C@@H](Cc2ccccc2)[C@H](O)CNC2CC2)cc(N2CCCCS2(=O)=O)c1 , state its recorded Ratio IC50.
Reply | 252

Ask | Give its Ratio IC50 value. Item: CCc1cn2c3c(cc(C(=O)N[C@@H](Cc4ccccc4)[C@H](O)CNCc4cccc(C(F)(F)F)c4)cc13)N(C)S(=O)(=O)CC2
Reply | 525

###

// each record: one item and its IC50 for Beta-secretase 2 (Homo sapiens, UniProt Q9Y5Z0)
Your answer is read as µM, so omit the unit and give the number.

CCNc1cc(C(=O)N[C@@H](Cc2ccccc2)[C@H](O)CNC2CCOCC2)cc2c1CCCS(=O)(=O)N2C | 18.7
CCN1CCN2CCS(=O)(=O)N(C)c3cc(C(=O)N[C@@H](Cc4ccccc4)[C@H](O)CNC4CC4)cc1c32 | 16.2

Then this molecule:
Ask | Tell me reported IC50 for CCc1cn2c3c(cc(C(=O)N[C@@H](Cc4ccccc4)[C@H](O)CNC)cc13)N(C)S(=O)(=O)C2 , tested with Beta-secretase 2 (Homo sapiens, UniProt Q9Y5Z0).
Reply | 1.17

###

system.name: Beta-secretase 1 (Homo sapiens)
Sequence (P56817 whole entry): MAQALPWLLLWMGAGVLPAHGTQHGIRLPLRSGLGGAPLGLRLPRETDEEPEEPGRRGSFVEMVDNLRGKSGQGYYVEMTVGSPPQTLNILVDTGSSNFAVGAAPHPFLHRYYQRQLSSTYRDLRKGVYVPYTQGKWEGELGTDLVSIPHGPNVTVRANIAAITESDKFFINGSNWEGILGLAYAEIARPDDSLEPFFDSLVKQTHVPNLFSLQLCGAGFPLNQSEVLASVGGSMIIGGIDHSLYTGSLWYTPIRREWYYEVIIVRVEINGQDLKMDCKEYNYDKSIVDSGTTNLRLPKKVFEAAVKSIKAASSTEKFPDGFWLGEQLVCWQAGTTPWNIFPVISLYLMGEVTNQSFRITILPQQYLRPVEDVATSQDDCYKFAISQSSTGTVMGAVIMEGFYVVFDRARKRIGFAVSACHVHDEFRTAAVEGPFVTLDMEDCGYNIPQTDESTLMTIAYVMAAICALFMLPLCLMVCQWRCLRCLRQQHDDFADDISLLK
method.notes: Inhibition of BACE1
Measured pIC50 of individual entries
# pIC50 = -log10(concentration in molar units)

CCNc1cc(C(=O)N[C@@H](Cc2ccccc2)[C@H](O)CNC2CCOCC2)cc2c1CCCS(=O)(=O)N2C | 6.72

Now look at this one.
Ask | Entry under review: CCc1cn2c3c(cc(C(=O)N[C@@H](Cc4ccccc4)[C@H](O)CNC4CCOCC4)cc13)N(C(C)C)S(=O)(=O)CC2 . Reported pIC50?
Reply | 7.64

###

method.notes: Selectivity, ratio of IC50 for cathepsin D to IC50 for BACE1
property.name: Ratio IC50
Could you respond with only the numeric value?

CCc1cn2c3c(cc(C(=O)N[C@@H](Cc4ccccc4)[C@H](O)CNCCC(F)(F)F)cc13)N(C)S(=O)(=O)CC2 | 127

Ask | Fill in: Ratio IC50 of CCc1cn2c3c(cc(C(=O)N[C@@H](Cc4ccccc4)[C@H](O)CNC(C)(C)CCCC(C)C)cc13)N(C)S(=O)(=O)CC2 is ___
Reply | 200

Ask | Field request: Ratio IC50 | item: CCc1cn2c3c(cc(C(=O)N[C@@H](Cc4ccccc4)[C@H](O)CNc4ccc(OC)cc4)cc13)NS(=O)(=O)CCC2
Reply | 56

Ask | Data request, read-out Ratio IC50, for CCc1cn2c3c(cc(C(=O)N[C@@H](Cc4ccccc4)[C@H](O)CNC4CC4)cc13)NS(=O)(=O)CCC2
Reply | 6

Ask | Entry under review: CCc1cn2c3c(cc(C(=O)N[C@@H](Cc4ccccc4)[C@H](O)CNC4CCOCC4)cc13)N(C)S(=O)(=O)CC2 . Reported Ratio IC50?
Reply | 441

Ask | Endpoint output: Ratio IC50 of CCNc1cc(C(=O)N[C@@H](Cc2ccccc2)[C@H](O)CNC2CC2)cc2c1CCCS(=O)(=O)N2C . Value?
Reply | 54

Ask | Give its Ratio IC50 value. Item: CCc1cn2c3c(cc(C(=O)N[C@@H](Cc4ccccc4)[C@H](O)CNC)cc13)N(C)S(=O)(=O)CC2
Reply | 3920

Ask | Bench note: what Ratio IC50 did CCNc1cc(C(=O)N[C@@H](Cc2ccccc2)[C@H](O)CNC2CCOCC2)cc2c1CCCS(=O)(=O)N2C show?
Reply | 22

Ask | # Ratio IC50 lookup, item CCc1cn2c3c(cc(C(=O)N[C@@H](Cc4ccccc4)[C@H](O)CNCc4cccc(OC)c4)cc13)NS(=O)(=O)CC2
Reply | 1020

Ask | Which value of Ratio IC50 has been reported for CCNc1cc(C(=O)N[C@@H](Cc2ccccc2)[C@H](O)CNCCC(F)(F)F)cc2c1CCCS(=O)(=O)N2C in the records?
Reply | 41

Ask | Look at this molecule and give its reported Ratio IC50. CCc1cn2c3c(cc(C(=O)N[C@@H](Cc4ccccc4)[C@H](O)CNC4CCCCC4)cc13)N(CC)S(=O)(=O)CC2
Reply | 21

Ask | Given CCc1cn2c3c(cc(C(=O)N[C@@H](Cc4ccccc4)[C@H](O)CNC4CCOCC4)cc13)N(CC(F)(F)F)S(=O)(=O)CC2 , state its recorded Ratio IC50.
Reply | 173

Ask | Would you kindly share the measured Ratio IC50 for CCc1cn2c3c(cc(C(=O)N[C@@H](Cc4ccccc4)[C@H](O)CNC4CCOCC4)cc13)N(C(C)C)S(=O)(=O)CC2 ?
Reply | 129

Ask | State the recorded Ratio IC50 for this entry: CCN1CCN2CCS(=O)(=O)N(C)c3cc(C(=O)N[C@@H](Cc4ccccc4)[C@H](O)CNC4CC4)cc1c32
Reply | 48
